Reference for the values: patent US5591714A

- Tested on: Enterococcus faecium X66
- METHOD DESCRIPTION: MIC, standard agar-dilution assay
- Type: cell-based
Listed here: items and their measured MIC.

Some solved cases for reference:
compound="CNC(CC(C)C)C(=O)NC1C(=O)NC(CC(N)=O)C(=O)NC2C(=O)NC3C(=O)NC(C(=O)NC(C(=O)O)c4cc(O)cc(O)c4-c4cc3ccc4O)C(OC3CC(C)(N)C(O)C(C)O3)c3ccc(c(Cl)c3)Oc3cc2cc(c3OC2OC(CO)C(O)C(O)C2OC2CC(C)(NCc3ccccc3Cl)C(O)C(C)O2)Oc2ccc(cc2Cl)C1O (stereo not drawn)" observed=".25 µg/mL"
compound=CCCCCCCCCCN[C@@]1(C)C[C@H](O[C@H]2[C@H](Oc3c4cc5cc3Oc3ccc(cc3Cl)[C@@H](O[C@H]3C[C@](C)(N)[C@@H](O)[C@H](C)O3)[C@@H]3NC(=O)[C@H](NC(=O)[C@@H]5NC(=O)[C@H](CC(N)=O)NC(=O)[C@H](NC(=O)[C@@H](CC(C)C)NC)[C@H](O)c5ccc(c(Cl)c5)O4)c4ccc(O)c(c4)-c4c(O)cc(O)cc4[C@@H](C(=O)O)NC3=O)O[C@H](CO)[C@@H](O)[C@@H]2O)O[C@@H](C)[C@@H]1O observed=".06 µg/mL"

Here is the next item to consider.
Reading of MIC for CNC(CC(C)C)C(=O)NC1C(=O)NC(CC(N)=O)C(=O)NC2C(=O)NC3C(=O)NC(C(=O)NC(C(=O)O)c4cc(O)cc(O)c4-c4cc3ccc4O)C(OC3CC(C)(N)C(O)C(C)O3)c3ccc(c(Cl)c3)Oc3cc2cc(c3OC2OC(CO)C(O)C(O)C2OC2CC(C)(NCc3ccc(F)cc3)C(O)C(C)O2)Oc2ccc(cc2Cl)C1O (stereo not drawn) with Enterococcus faecium X66: .5 µg/mL

###

- Test system: Streptococcus pyogenes C203
- METHOD DESCRIPTION: MIC, standard agar-dilution assay
- Format: cell-based
TEST READOUT: MIC

compound=CCCCCCC(=O)N[C@@]1(C)C[C@H](O[C@H]2[C@H](Oc3c4cc5cc3Oc3ccc(cc3Cl)[C@@H](O)[C@@H](NC(=O)[C@@H](CC(C)C)NC)C(=O)N[C@@H](CC(N)=O)C(=O)N[C@H]5C(=O)N[C@H]3C(=O)N[C@H](C(=O)N[C@H](C(=O)O)c5cc(O)cc(O)c5-c5cc3ccc5O)[C@H](O[C@H]3C[C@](C)(N)[C@@H](O)[C@H](C)O3)c3ccc(cc3)O4)O[C@H](CO)[C@@H](O)[C@@H]2O)O[C@@H](C)[C@@H]1O assay_target="Streptococcus pyogenes C203" observed=".5 µg/mL"

// MIC lookup, compound = CNC(CC(C)C)C(=O)NC1C(=O)NC(CC(N)=O)C(=O)NC2C(=O)NC3C(=O)NC(C(=O)NC(C(=O)O)c4cc(O)cc(O)c4-c4cc3ccc4O)C(OC3CC(C)(N)C(O)C(C)O3)c3ccc(c(Cl)c3)Oc3cc2cc(c3OC2OC(CO)C(O)C(O)C2OC2CC(C)(NCc3ccc(Cl)cc3)C(O)C(C)O2)Oc2ccc(cc2Cl)C1O (stereo not drawn) , result: .06 µg/mL

// MIC lookup, compound = CNC(CC(C)C)C(=O)NC1C(=O)NC(CC(N)=O)C(=O)NC2C(=O)NC3C(=O)NC(C(=O)NC(C(=O)O)c4cc(O)cc(O)c4-c4cc3ccc4O)C(OC3CC(C)(N)C(O)C(C)O3)c3ccc(c(Cl)c3)Oc3cc2cc(c3OC2OC(CO)C(O)C(O)C2OC2CC(C)(NCC(c3ccccc3)c3ccccc3)C(O)C(C)O2)Oc2ccc(cc2Cl)C1O (stereo not drawn) , result: .125 µg/mL

###

- Tested on: Staphylococcus aureus V41
- METHOD DESCRIPTION: MIC, standard agar-dilution assay
- Assay type: cell-based
Listed here: items and their measured MIC.

molecule="CCCCCNC1(C)CC(OC2c3ccc(c(Cl)c3)Oc3cc4cc(c3OC3OC(CO)C(O)C(O)C3O)Oc3ccc(cc3Cl)C(O)C(NC(=O)C(CC(C)C)NC)C(=O)NC(CC(N)=O)C(=O)NC4C(=O)NC3C(=O)NC2C(=O)NC(C(=O)O)c2cc(O)cc(O)c2-c2cc3ccc2O)OC(C)C1O (centres unmarked)" observed=".5 µg/mL"

Here is the next item to consider.
// MIC lookup, molecule = CNC(CC(C)C)C(=O)NC1C(=O)NC(CC(N)=O)C(=O)NC2C(=O)NC3C(=O)NC(C(=O)NC(C(=O)O)c4cc(O)cc(O)c4-c4cc3ccc4O)C(OC3CC(C)(NCc4ccccc4)C(O)C(C)O3)c3ccc(c(Cl)c3)Oc3cc2cc(c3OC2OC(CO)C(O)C(O)C2O)Oc2ccc(cc2Cl)C1O (centres unmarked) , result: .25 µg/mL

###

Listed here: items and their measured MIC.
- Test system: Staphylococcus aureus V41
- METHOD DESCRIPTION: MIC, standard agar-dilution assay
- Assay type: cell-based

Some solved cases for reference:
molecule="CNC(CC(C)C)C(=O)NC1C(=O)NC(CC(N)=O)C(=O)NC2C(=O)NC3C(=O)NC(C(=O)NC(C(=O)O)c4cc(O)cc(O)c4-c4cc3ccc4O)C(OC3CC(C)(N)C(O)C(C)O3)c3ccc(c(Cl)c3)Oc3cc2cc(c3OC2OC(CO)C(O)C(O)C2OC2CC(C)(NCc3cccc(Cl)c3)C(O)C(C)O2)Oc2ccc(cc2Cl)C1O (stereo not drawn) [Compound 64]" observed=".25 µg/mL"
molecule="CCN(CC)c1ccc(CN[C@@]2(C)C[C@H](O[C@H]3[C@H](Oc4c5cc6cc4Oc4ccc(cc4Cl)[C@@H](O)[C@@H](NC(=O)[C@@H](CC(C)C)NC)C(=O)N[C@@H](CC(N)=O)C(=O)N[C@H]6C(=O)N[C@H]4C(=O)N[C@H](C(=O)N[C@H](C(=O)O)c6cc(O)cc(O)c6-c6cc4ccc6O)[C@H](O[C@H]4C[C@](C)(N)[C@@H](O)[C@H](C)O4)c4ccc(cc4)O5)O[C@H](CO)[C@@H](O)[C@@H]3O)O[C@@H](C)[C@@H]2O)cc1 [Compound 17]" observed=".5 µg/mL"

// MIC lookup, molecule = CCCCCCCCCCN[C@@]1(C)C[C@H](O[C@H]2[C@H](Oc3c4cc5cc3Oc3ccc(cc3Cl)[C@@H](O[C@H]3C[C@](C)(N)[C@@H](O)[C@H](C)O3)[C@@H]3NC(=O)[C@H](NC(=O)[C@@H]5NC(=O)[C@H](CC(N)=O)NC(=O)[C@H](NC(=O)[C@@H](CC(C)C)NC)[C@H](O)c5ccc(c(Cl)c5)O4)c4ccc(O)c(c4)-c4c(O)cc(O)cc4[C@@H](C(=O)O)NC3=O)O[C@H](CO)[C@@H](O)[C@@H]2O)O[C@@H](C)[C@@H]1O [Compound 42] , result: .5 µg/mL
